Below: molecules with IC50 recorded for Lysine-specific demethylase 4C (Homo sapiens, UniProt Q9H3R0) in separate published works.

Task: IC50 lookup needed for Oc1nc(OCc2ccccc2C(F)(F)F)nc2cnccc12 , thanks.
Result: ≤ 100 nM

Task: Query O=C(O)c1ccncc1NC[C@H]1CCOc2cc(-c3ccccc3)ccc21 next
Result: 100 to 1000 nM

Task: Query CN(C)CCOc1nc(O)c2ccnc(-c3cn(C)cn3)c2n1 next
Result: 100 to 1000 nM

Task: Query COc1ccccc1-c1ccc2c(c1)OCC[C@H]2CNc1cnccc1C(=O)O next
Result: 100 to 1000 nM

Task: Query Cc1ccccc1Sc1ccc2c(c1)CCC[C@H]2CNc1cnccc1C(=O)O next
Result: 1000 to 10000 nM

Task: Query Fc1ccc(-c2c(-c3cc(-c4nn[nH]n4)ccn3)ncn2CC2CC2)cc1 next
Result: 1000 to 10000 nM

Task: Query CC(CCN(C)C)c1ccc(N(C)c2ccc(Oc3nc(O)c4ccncc4n3)cc2)cc1 (stereo not drawn) next
Result: ≤ 100 nM

Task: Query Clc1ccc(-c2c(-c3cc(-c4nn[nH]n4)ccn3)ncn2CC2CC2)cc1 next
Result: 1000 to 10000 nM

Task: Query CCc1ccc(COc2ccnn2-c2cc(C(=O)O)ccn2)c(F)c1 next
Result: 1000 to 10000 nM

Task: Query Cn1cnc(-c2nccc3c(O)nc(OCC(F)(F)F)nc23)c1 next
Result: 100 to 1000 nM

Task: Query O=C(O)c1ccnc(-n2nccc2OCc2ccc(Cl)cc2F)c1 next
Result: < 100 nM

Task: Query CCN(c1ccccc1)c1ccc2c(c1)OCC[C@H]2CNc1cnccc1C(=O)O next
Result: 100 to 1000 nM

Task: Query COc1cc(N(C)c2ccc3c(c2)OCC[C@H]3CNc2cnccc2C(=O)O)ccc1F next
Result: 100 to 1000 nM

Task: Query O=C(O)c1ccncc1NCc1cccc(F)c1 next
Result: ≤ 100 nM

Task: Query Oc1nc(Oc2ccc(N3CCOC(c4ccccc4)C3)cc2)nc2cnccc12 (stereo not drawn) next
Result: 100 to 1000 nM
